Source listed as ChEMBL document CHEMBL2163248.

- Target under test: UniProtKB Q9Y6L6
- Sequence (Q9Y6L6 whole entry): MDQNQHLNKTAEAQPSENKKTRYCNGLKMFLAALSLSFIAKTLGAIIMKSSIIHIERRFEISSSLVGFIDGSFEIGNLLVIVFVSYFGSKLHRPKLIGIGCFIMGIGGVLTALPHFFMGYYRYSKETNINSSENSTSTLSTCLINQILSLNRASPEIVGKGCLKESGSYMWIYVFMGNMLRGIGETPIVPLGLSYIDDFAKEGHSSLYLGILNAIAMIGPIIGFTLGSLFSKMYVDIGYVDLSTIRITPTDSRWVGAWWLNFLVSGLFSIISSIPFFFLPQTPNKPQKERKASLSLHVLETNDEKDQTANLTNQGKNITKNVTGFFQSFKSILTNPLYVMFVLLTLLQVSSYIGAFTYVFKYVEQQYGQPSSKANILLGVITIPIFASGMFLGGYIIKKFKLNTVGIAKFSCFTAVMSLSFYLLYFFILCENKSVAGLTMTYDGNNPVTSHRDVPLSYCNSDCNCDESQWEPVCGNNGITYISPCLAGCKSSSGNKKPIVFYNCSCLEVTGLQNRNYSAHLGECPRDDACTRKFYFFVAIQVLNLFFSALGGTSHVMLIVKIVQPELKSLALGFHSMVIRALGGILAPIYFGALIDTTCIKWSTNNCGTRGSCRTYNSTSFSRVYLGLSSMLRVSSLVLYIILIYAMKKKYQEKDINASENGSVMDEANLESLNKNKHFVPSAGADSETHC
- Experimental protocol: Inhibition of human liver OATP1B1 expressed in HEK293 Flp-In cells assessed as reduction in E17-betaG uptake at 20 uM by scintillation counting
- Condition info: hek293, 20 µM
Measured INH, listed per entry for reference.
Reported metric: INH

CN(C)[C@@H]1C(O)=C(C(N)=O)C(=O)[C@@]2(O)C(O)=C3C(=O)c4c(O)cccc4[C@@](C)(O)[C@H]3C[C@@H]12
22.1%
COc1ccnc(C[S+]([O-])c2nc3ccc(OC(F)F)cc3[nH]2)c1OC (stereo not drawn)
15.2%
O=C1[C@H](CC[C@H](O)c2ccc(F)cc2)[C@@H](c2ccc(O)cc2)N1c1ccc(F)cc1
55.5%

====

- Target under test: Solute carrier organic anion transporter family member 1B3 (Homo sapiens)
- Sequence (Q9NPD5 whole entry): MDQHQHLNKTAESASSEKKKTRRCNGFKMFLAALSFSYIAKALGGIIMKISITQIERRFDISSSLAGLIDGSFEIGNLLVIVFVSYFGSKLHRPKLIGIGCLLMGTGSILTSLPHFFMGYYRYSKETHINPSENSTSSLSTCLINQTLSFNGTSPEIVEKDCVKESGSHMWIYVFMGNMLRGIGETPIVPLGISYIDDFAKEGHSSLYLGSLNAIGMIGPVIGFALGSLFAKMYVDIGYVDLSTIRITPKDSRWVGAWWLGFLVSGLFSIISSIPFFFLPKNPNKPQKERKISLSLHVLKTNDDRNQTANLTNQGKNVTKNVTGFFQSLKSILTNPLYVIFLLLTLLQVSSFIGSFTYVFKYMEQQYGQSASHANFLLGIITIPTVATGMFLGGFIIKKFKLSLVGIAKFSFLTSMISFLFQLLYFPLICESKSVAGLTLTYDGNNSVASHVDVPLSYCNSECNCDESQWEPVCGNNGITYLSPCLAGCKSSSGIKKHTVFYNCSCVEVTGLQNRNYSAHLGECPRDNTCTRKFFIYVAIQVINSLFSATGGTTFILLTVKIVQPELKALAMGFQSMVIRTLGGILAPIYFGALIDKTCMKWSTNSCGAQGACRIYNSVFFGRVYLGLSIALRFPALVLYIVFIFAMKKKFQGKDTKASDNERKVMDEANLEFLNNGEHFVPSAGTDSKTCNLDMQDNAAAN
- Experimental protocol: Inhibition of human liver OATP1B3 expressed in HEK293 Flp-In cells assessed as reduction in [3H]E17-betaG uptake at 20 uM incubated for 5 mins by scintillation counting
- Condition info: hek293, 5 min
This listing pairs compounds with measured INH.
Reported metric: INH (%)

CN(C)CCC=C1c2ccccc2CCc2ccccc21 [AMITRIPTYLINE]
22
CC1(C)S[C@@H]2[C@H](NC(=O)Cc3ccccc3)C(=O)N2[C@H]1C(=O)O [PENICILLIN G]
40.9
CN1CCC[C@H]1c1cccnc1 [NICOTINE]
11
Fc1ccc([C@@H]2CCNC[C@H]2COc2ccc3c(c2)OCO3)cc1 [PAROXETINE]
12.7
CCN(CC)CCNC(=O)c1ccc(N)cc1 [PROCAINAMIDE]
3.4
O=C(O)C[C@H](O)C[C@H](O)/C=C/c1c(C2CC2)nc2ccccc2c1-c1ccc(F)cc1 [PITAVASTATIN]
94.3
CO[C@@H]1[C@@H](OC(N)=O)[C@@H](O)[C@H](Oc2ccc3c(O)c(NC(=O)c4ccc(O)c(CC=C(C)C)c4)c(=O)oc3c2C)OC1(C)C [NOVOBIOCIN]
84.2
